Cited source for all entries: ChEMBL document CHEMBL1146267

- Target Or Test System: Gamma-secretase
- Procedure Summary: Inhibition of gamma secretase-mediated amyloid-beta peptid […]
- Assay type: protein-complex assay, Homo sapiens
Attribute Measured: pIC50
# reply with the number alone; pIC50 is -log10 of concentration in mol/L

# annotated cases, reported pIC50 shown
[[record]]
compound = "O=C(OC[C@H]1CCC[C@@H](c2cc(F)cc(F)c2)N1S(=O)(=O)c1ccc(Cl)cc1)N1CCN(C2CCCCC2)CC1 (racemic)"
numeric_result = 7.44

[[record]]
compound = "O=C(OC[C@H]1CCC[C@@H](c2ccccc2F)N1S(=O)(=O)c1ccc(Cl)cc1)N1CCC(N2CCCCC2)CC1 (racemic)"
numeric_result = 8.10

[[record]]
compound = "CN1CCC(N(C)C2CCN(C(=O)OC[C@H]3CCC[C@@H](Cc4ccccc4)N3S(=O)(=O)c3ccc(Cl)cc3)CC2)CC1 (racemic)"
numeric_result = 4.91

[[record]]
compound = "CC1CN(CC2CC2)CCN1C(=O)OC[C@H]1CCC[C@@H](c2ccccc2)N1S(=O)(=O)c1ccc(Cl)cc1 (mixture of isomers)"
numeric_result = 7.43

[[record]]
compound = "C[C@@H]1CCC[C@@H](COC(=O)NCCCn2ccnc2)N1S(=O)(=O)c1ccc(Cl)cc1 (relative stereo)"
numeric_result = 5.19

[[record]]
compound = "O=C(OC[C@H]1CCC[C@@H](c2ccccc2)N1S(=O)(=O)c1ccc(Cl)cc1)N1CCN(C2CCCCC2)CC1 (racemic)"
numeric_result = 7.17

[[record]]
compound = "O=C(OC[C@H]1CCC[C@@H](c2cc(F)ccc2F)N1S(=O)(=O)c1ccc(Cl)cc1)N1CCC(N2CCCCC2)CC1 (racemic)"
numeric_result = 8.00

[[record]]
compound = "C[C@@H]1CCC[C@H](COC(=O)N2CCC(N3CCCCC3)CC2)N1S(=O)(=O)c1ccc(Cl)cc1 (racemic)"
numeric_result = 7.12

[[record]]
compound = "C[C@@H]1CCC[C@@H](COC(=O)N2CCCC2)N1S(=O)(=O)c1ccc(Cl)cc1 (relative stereo)"
numeric_result = 4.97

[[record]]
compound = "O=C(OC[C@H]1CCC[C@@H](c2ccccc2F)N1S(=O)(=O)c1ccc(Cl)cc1)N1CCN(C2CCCCC2)CC1 (racemic)"
numeric_result = 7.77


The value of pIC50 measured for the compound O=C(OC[C@H]1CCC[C@@H](c2cc(F)ccc2F)N1S(=O)(=O)c1ccc(Cl)cc1)N1CCN(C2CCCCC2)CC1 (racemic) turned out to be 7.55

The compound listed as CC1CC(N2CCCCC2)CCN1C(=O)OC[C@H]1CCC[C@@H](c2cccc(F)c2)N1S(=O)(=O)c1ccc(Cl)cc1 (mixture of isomers) has a reported pIC50 of 7.89

Sample CC1CN(CC2CC2)CCN1C(=O)OC[C@H]1CCC[C@@H](c2cccc(F)c2)N1S(=O)(=O)c1ccc(Cl)cc1 (mixture of isomers) ; pIC50 observed: 7.59

Entry O=C(OC[C@H]1CCC[C@@H](c2cc(F)cc(F)c2)N1S(=O)(=O)c1ccc(Cl)cc1)N1CCC(N2CCCCC2)CC1 (racemic) — recorded pIC50 = 8.40

----------
- Target Or Test System: Gamma-secretase
- Procedure Summary: Inhibition of gamma secretase-mediated amyloid-beta peptid […]
Attribute Measured: pIC50
Keep in mind that pIC50 stands for -log10 of concentration in molar terms.

In the examples that follow, each entry is paired with its recorded pIC50.
[[record]]
molecule = "CC[C@@H]1CCC[C@H](COC(=O)N2CCC(N(C)C3CCN(C)CC3)CC2)N1S(=O)(=O)c1ccc(Cl)cc1 (racemic)"
attribute_measured = "pIC50"
numeric_result = 6.80

[[record]]
molecule = "O=C(OCC1CCc2ccc(F)cc2N1S(=O)(=O)c1ccc(Cl)cc1)N1CCCC1 (centres undefined)"
attribute_measured = "pIC50"
numeric_result = 6.17

[[record]]
molecule = "CC1CN(C2CCCCC2)CCN1C(=O)OC[C@H]1CCC[C@@H](c2ccccc2)N1S(=O)(=O)c1ccc(Cl)cc1 (mixture of isomers)"
attribute_measured = "pIC50"
numeric_result = 7.15


// pIC50 (Gamma-secretase) for CC1CCC2CCCCC2N1S(=O)(=O)c1ccc(Cl)cc1 (centres undefined) = 5.60

Measured on Gamma-secretase, O=C(NCCCn1ccnc1)OCC1CCCCN1S(=O)(=O)c1ccc(Cl)cc1 (centres undefined) has a documented pIC50 of 4.81

For the molecule O=C(NCCCn1ccnc1)OCC1CCc2ccc(F)cc2N1S(=O)(=O)c1ccc(Cl)cc1 (centres undefined) , the measured pIC50 on Gamma-secretase was 6.57

The value of pIC50 recorded for O=C(OC[C@H]1CCC[C@@H](c2ccc(F)c(F)c2)N1S(=O)(=O)c1ccc(Cl)cc1)N1CCN(C2CCCCC2)CC1 (racemic) when tested on Gamma-secretase reads 7.59

The molecule O=C(OC[C@H]1CCC[C@@H](c2cccc(F)c2)N1S(=O)(=O)c1ccc(Cl)cc1)N1CCN(C2CCCCC2)CC1 (racemic) , when measured on Gamma-secretase, yielded pIC50 of 7.42

----------
- Target Or Test System: Gamma-secretase
- Procedure Summary: Inhibition of gamma secretase-mediated amyloid-beta peptid […]
Attribute Measured: IC50 (nM)
Reply with just the number (in nM).

Guide cases for IC50, answers given:
[[record]]
compound = "O=C(OC[C@H]1CCC[C@@H](Cc2ccccc2)N1S(=O)(=O)c1ccc(Cl)cc1)N1CCC(N2CCCCC2)CC1 (racemic)"
numeric_result = 4770

[[record]]
compound = "C[C@@H]1CCC[C@H](COC(=O)N2CCC(N(C)C3CCN(C)CC3)CC2)N1S(=O)(=O)c1ccc(Cl)cc1 (racemic)"
numeric_result = 219

[[record]]
compound = "O=C(OC[C@H]1CCC[C@@H](c2ccc(F)c(F)c2)N1S(=O)(=O)c1ccc(Cl)cc1)N1CCC(N2CCCCC2)CC1 (racemic)"
numeric_result = 8


Moving on to the next compound.
# compound O=C(OC[C@H]1CCC[C@@H](c2cccc(F)c2)N1S(=O)(=O)c1ccc(Cl)cc1)N1CCC(N2CCCCC2)CC1 (racemic) ; its IC50 = 11

----------
- Target Or Test System: Gamma-secretase
- Procedure Summary: Inhibition of gamma secretase-mediated amyloid-beta peptid […]
# pIC50 per record follows
Please report pIC50 as the negative decimal logarithm of the molar concentration, giving only the number.

Reference set (3 entries):
[[record]]
molecule = "C[C@@H]1CCC[C@H](COC(=O)N2CCCC2)N1S(=O)(=O)c1ccc(Cl)cc1 (relative stereo)"
numeric_result = 5.71

[[record]]
molecule = "C[C@@H]1CCC[C@H](COC(=O)NCCCn2ccnc2)N1S(=O)(=O)c1ccc(Cl)cc1 (relative stereo)"
numeric_result = 6.24

[[record]]
molecule = "CC1CC(N2CCCCC2)CCN1C(=O)OC[C@H]1CCC[C@@H](c2cc(F)cc(F)c2)N1S(=O)(=O)c1ccc(Cl)cc1 (mixture of isomers)"
numeric_result = 8.15


Now for a further molecule.
Note to self: pIC50 recorded for O=C(OC[C@H]1CCC[C@@H](c2ccccc2)N1S(=O)(=O)c1ccc(Cl)cc1)N1CCC(N2CCCCC2)CC1 (racemic) was 7.80
